Experiment: chemical genetic growth profiling, strain panel (AID 1159580);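 also: tested at 20 µM; growth read once vehicle control cultures reached saturation at 30 °C; 1 = growth at the plate median or of vehicle wells; lower values mean less growth of the strain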
Details: S. cerevisiae deletion strains, growth OD, locus YPL204W, strain HRR25
Among all 5,500 compounds or so, about 2,000 (36%) were called active. Roughly 18% stayed inconclusive and do not appear here. Rule as the data show it: active = normalized growth mostly below about 0.91 (no sharp cut-off); inconclusive = no clear call, values can overlap the other calls; inactive = mostly above about 0.92. The list shows a part of the results.
Outcome (select one): yes (1) for active, no (0) for inactive

Please review the entries below; each comes with its answer.
Query: Per the assay record, what outcome was assigned to O=C(NC(=S)NNc1ncc(C(F)(F)F)cc1Cl)c1cccs1 ?
Result: yes (1)

Query: Look up the recorded call for N/C(=N/OC(=O)Nc1cccc(C(F)(F)F)c1)c1ccc(OC(F)(F)F)cc1 in this test.
Result: no (0)

Query: Which result was noted for this molecule in the test: O=c1cc(CSc2ccc(Cl)cc2)c2ccc(O)cc2o1
Result: yes (1)

---
Query: I would be grateful if you could indicate the recorded call for CN(C)/C=C1\CSc2ccc(Cl)cc2C1=O .
Result: no (0)

Query: In this assay, the call recorded for O=C(Nc1ccccc1C(=O)O)OCC1c2ccccc2-c2ccccc21 was what?
Result: no (0)

Query: Record request — test call for N/C(=N/OC(=O)c1ccc([N+](=O)[O-])cc1)c1c(Cl)cccc1Cl
Result: no (0)

Query: Hello, I am checking results. What call was entered for O=C1Nc2ccccc2/C1=C\c1c[nH]c2ccccc12 ?
Result: yes (1)

---

Assay: chemical genetic growth profiling, strain panel (AID 1159580)
Conditions: S. cerevisiae deletion strains, growth OD, locus YOR083W, strain WHI5, hits give low values
The campaign covered roughly 5,500 compounds. About 2,000 (36%) were called active. About 18% were inconclusive and are not listed. The list shows a part of the results.
// boundary case: normalized growth equal to 1 maps to No; strictly smaller maps to Yes

Query: Determine whether this molecule shows normalized growth lower than 1 (ties excluded): CN(C)C(=O)C(CCN1CCC(O)(c2ccc(Cl)cc2)CC1)(c1ccccc1)c1ccccc1
Result: Yes

Further cases:
Query: Decide: normalized growth of CO[C@@H]1[C@@H](OC(N)=O)[C@@H](O)[C@H](Oc2ccc3c(O)c(NC(=O)c4ccc(O)c(CC=C(C)C)c4)c(=O)oc3c2C)OC1(C)C strictly below 1?
Result: No

---

Assay: chemical genetic growth profiling, strain panel (AID 1159580);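 also: tested at 20 µM; growth read once vehicle control cultures reached saturation at 30 °C; 1 = growth at the plate median or of vehicle wells; lower values mean less growth of the strain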
Conditions: S. cerevisiae deletion strains, growth OD, locus YNL071W, strain lat1, hits give low values
Among all 5,500 compounds or so, about 2,000 (36%) were called active. Roughly 18% stayed inconclusive and do not appear here. This is one part of the list.
measured property: normalized growth
Form rule: numeric answer, no unit written next to it.

Study these solved cases before continuing.
Reported normalized growth of O=S(=O)(O)O : 0.959

Lookup result for C[C@H]1O[C@H](O[C@H]2[C@H](O)[C@@H](O)[C@@H](O[C@H]3[C@H](O)[C@@H](O)C(O)O[C@@H]3CO)O[C@@H]2CO)[C@H](O)[C@@H](O)[C@@H]1N[C@H]1C=C(CO)[C@@H](O)[C@H](O)[C@H]1O (stereo partly specified) ; measured normalized growth: 1.01

Notebook: C[C@@H](CO)NC(=O)C1C=C2c3cccc4[nH]cc(c34)C[C@H]2N(C)C1 (stereo partly specified) , normalized growth read as 1

response.value for Cc1ccccc1N1C(=O)c2cc(S(N)(=O)=O)c(Cl)cc2NC1C (stereo unspecified) (field: normalized growth) = 1.01

# normalized growth of COc1cccc2c1CCC1=CC(=O)CC[C@@]12C = 1

# compound CC12CCC(=O)C=C1CCc1ccccc12 (stereo unspecified) ; its normalized growth = 0.978

The reported value for CO[C@H]1[C@@H](O)[C@@H](C)O[C@H](O[C@H]2CCC3(C)C4CCC5(C)[C@@H](C6=CC(=O)OC6)CC[C@]5(O)[C@@H]4CC[C@]3(O)C2)[C@@H]1O (stereo partly specified) in terms of normalized growth is 1.02

For reference, reported normalized growth for Cc1cc(N)c2ccccc2[n+]1CCCCCCCCCC[n+]1c(C)cc(N)c2ccccc21 stands at 0.0636

Lookup result for CC1(C)Oc2ccc3ccc(=O)oc3c2CC1O (stereo unspecified) ; measured normalized growth: 0.988

Noted for C[C@H]1[C@H](C)CC[C@]2(C(=O)O)CC[C@]3(C)C(=CCC4[C@@]5(C)C[C@@H](O)[C@H](O)[C@@](C)(CO)C5CC[C@]43C)[C@H]12 (stereo partly specified) : its normalized growth reads 1.02

---
Noted for COc1ccc(-c2cc(=O)c3c(O)cc(O)c(-c4cc(-c5cc(=O)c6c(O)cc(O)cc6o5)ccc4OC)c3o2)cc1 : its normalized growth reads 1.01

# normalized growth (compound: CC(C)=CC1C(CO)C1(C)C (stereo unspecified) ) is 1.02

Just so you know, measured normalized growth for O=C1CC2(CCCC2)CC(=O)N1CCCCN1CCN(c2ncccn2)CC1 came out at 0.999

// normalized growth value for CC1Cc2ccccc2N1NC(=O)c1ccc(Cl)c(S(N)(=O)=O)c1 (stereo unspecified) : 1.01

// CC[C@@]1(O)C(=O)OCc2c1cc1n(c2=O)Cc2cc3cc(O)ccc3nc2-1 : normalized growth value = 1.02

Entry COC(=O)C(N)CS (stereo unspecified) , normalized growth reported as 0.968

// field: normalized growth; key: CC1CCCC(C)N1NC(=O)c1ccc(Cl)c(S(N)(=O)=O)c1 (stereo unspecified) ; value = 1.02

Lab book: normalized growth of CC1=C2C(O)C(=O)OC3CC4C(C)(C)C(=O)C=C[C@]4(C)C(CC1)[C@]23C (stereo partly specified) noted as 0.999

// C[C@@H]1CCC2[C@](C)(CO)[C@@H](O)CC[C@]2(C)[C@@]12CC[C@@](CO)(CCO)O2 (stereo partly specified) : normalized growth value = 0.989

Data point: COc1cc(O)c2c(=O)cc(-c3ccc(OC)c(-c4c(O)cc(O)c5c(=O)cc(-c6ccc(O)cc6)oc45)c3)oc2c1 ; normalized growth = 1.02

# normalized growth (compound: CC[C@@]1(O)C(=O)OCc2c1cc1n(c2=O)Cc2cc3ccccc3nc2-1 ) is 0.744

For CC1=CC(=O)C2C(C)(C)CCC[C@]2(C)[C@@]1(O)CCc1ccoc1 (stereo partly specified) the compound record lists normalized growth as 0.902

In plain terms, Oc1ccc2c3c1OC1[C@@H](O)CC[C@@]4(O)[C@@H](C2)N(CC2CCC2)CC[C@]314 (stereo partly specified) has a documented normalized growth of 1

Measured normalized growth of CN(C)CC[C@H](c1ccc(Cl)cc1)c1ccccn1 : 0.998

Note to self: normalized growth recorded for C[N+]1(C)C[C@H](O)[C@H](C(=O)[O-])C1 was 1.02

In plain terms, CNC[C@H](O)c1cccc(O)c1 has a documented normalized growth of 0.998

---

Assay: chemical genetic growth profiling, strain panel (AID 1159580);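 also: tested at 20 µM; growth read once vehicle control cultures reached saturation at 30 °C; 1 = growth at the plate median or of vehicle wells; lower values mean less growth of the strain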
Conditions: S. cerevisiae deletion strains, growth OD, locus YMR125W, strain sto1, hits give low values
In all, about 5,500 compounds went through this assay and about 2,000 (36%) were called active. About 18% were inconclusive and are not listed. Some of the results follow.
measured property: normalized growth
Lab note: jot the number down without any unit.

Entry under test: OC1(c2ccc(Cl)c(C(F)(F)F)c2)CCN(CCCC(c2ccc(F)cc2)c2ccc(F)cc2)CC1 . Its normalized growth was 0.164

Item: O=C1CC2(CCCC2)CC(=O)N1CCCCN1CCN(c2ncccn2)CC1 | normalized growth: 0.998

The compound listed as O=C(CCCN1CCC(O)(c2ccc(Cl)cc2)CC1)c1ccc(F)cc1 shows normalized growth equal to 0.876

Then there is this compound:
The recorded normalized growth for entry C[C@H]1O[C@@H](O[C@H]2[C@@H](O)C[C@H](O[C@H]3[C@@H](O)C[C@H](O[C@H]4CC[C@]5(C)C6C[C@@H](O)[C@]7(C)[C@@H](C8=CC(=O)OC8)CC[C@]7(O)C6CC[C@@H]5C4)O[C@@H]3C)O[C@@H]2C)C[C@H](O)[C@@H]1O (some centres undefined) equals 0.925

---

Assay: chemical genetic growth profiling, strain panel (AID 1159580);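 also: tested at 20 µM; growth read once vehicle control cultures reached saturation at 30 °C; 1 = growth at the plate median or of vehicle wells; lower values mean less growth of the strain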
Conditions: S. cerevisiae deletion strains, growth OD, locus YDL192W, strain arf1, hits give low values
Out of some 5,500 compounds screened, about 2,000 (36%) were called active. Another 18% or so got no clear call; they are omitted. Some of the results follow.
Please assign no (0) whenever normalized growth is at or above 1, and yes (1) whenever it is below.

Check out these entries, answers already filled in.
Query: Please state whether normalized growth is below 1 for O=c1c(O)cccc2c(C3Oc4cc(O)cc(O)c4CC3O)cc(O)c(O)c12 (stereo not drawn)
Result: yes (1)

Query: Say whether its normalized growth is strictly beneath 1. Entry: CC1(C)S[C@@H]2C(N3C(=O)[C@@H](c4ccccc4)NC3(C)C)C(=O)N2[C@H]1C(=O)O (stereo partly drawn)
Result: no (0)

API: the following record is the query input.
Query: I'd appreciate it if you could check whether O=C(CCCN1CCC(O)(c2ccc(Cl)cc2)CC1)c1ccc(F)cc1 has normalized growth smaller than 1.
Result: yes (1)
